Data origin, for the record: patent US20220370416A1

study target: HiBit-KRAS^G12C (Homo sapiens, UniProt P01116, G12C)
Sequence (P01116 1-186 isoform P01116-2 G12C limits assumed): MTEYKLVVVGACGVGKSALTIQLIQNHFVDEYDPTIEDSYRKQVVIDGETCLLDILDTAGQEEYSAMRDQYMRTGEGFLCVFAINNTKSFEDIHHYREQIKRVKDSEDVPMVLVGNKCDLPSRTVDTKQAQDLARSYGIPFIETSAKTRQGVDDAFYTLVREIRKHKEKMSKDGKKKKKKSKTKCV
protocol notes: HiBit degradation assay in MiaPaCa-2 HiBit-KRas^G12C cells
Assay type: cell-based
stated conditions: read-out: KRas^G12C-HiBiT (MiaPaCa; 0.5% DMSO) IC50; MiaPaCa-2 HiBit-KRas^G12C cells; 0.5% DMSO; 24 hours
// values below are reported DC50

compound=C=CC(=O)N1CCN(c2nc(OCCN3CCC(COCC(=O)N[C@H](C(=O)N4C[C@H](O)C[C@H]4C(=O)N[C@@H](C)c4ccc(-c5scnc5C)cc4)C(C)(C)C)CC3)nc3c(F)c(-c4cc(O)cc5ccccc45)c(Cl)cc23)[C@@H](C)C1 quantity_name=DC50 result="100 to 1000 nM"
compound=C=CC(=O)N1CCN(c2nc(OCCN3CCC4(CC3)CN(CC(=O)N[C@H](C(=O)N3C[C@H](O)C[C@H]3C(=O)N[C@@H](C)c3ccc(-c5scnc5C)cc3)C(C)(C)C)C4)nc3c(F)c(-c4cc(O)cc5ccccc45)c(Cl)cc23)C[C@@H]1CC#N quantity_name=DC50 result="100 to 1000 nM"

From here, focus on the item given below.
So, C=CC(=O)N1CCN(c2nc(OCCN3CCC(COc4cc([C@H](C(=O)N5C[C@H](O)C[C@H]5C(=O)N[C@@H](C)c5ccc(-c6scnc6C)cc5)C(C)C)on4)CC3)nc3c(F)c(-c4cc(O)cc5ccccc45)c(Cl)cc23)C[C@@H]1CC#N (atropisomer, axis not shown) [Compound 173] ? Its DC50 was < 100 nM

###

study target: HiBit-KRAS^G12C (Homo sapiens, UniProt P01116, G12C)
protocol notes: HiBit degradation assay in SW1573 HiBit-KRas^G12C cells
Type: cell-based
Parameters: expressed in transfected cells; host or cells: SW1573 (clone E6), modified pcDNA3.1 vector, TK promoter
stated conditions: read-out: KRas^G12C-HiBiT (SW1573; 0.5% DMSO) IC50***; SW1573 HiBit-KRas^G12C, 0.5% DMSO, 24 hours
Reported DC50 values follow for various molecules

molecule="C=CC(=O)N1CCN(c2nc(O[C@H](C)CN3CCC(OCCOCC(=O)N[C@H](C(=O)N4C[C@H](O)C[C@H]4C(=O)N[C@@H](C)c4ccc(-c5scnc5C)cc4)C(C)(C)C)CC3)nc3c(F)c(-c4c(O)cccc4F)c(Cl)cc23)CC1 [Compound 61]" study_target="HiBit-KRAS^G12C (Homo sapiens, UniProt P01116, G12C)" quantity_name=DC50 result="> 1 µM"
molecule="C=CC(=O)N1CCN(c2nc(OCCN3CCC4(CC3)CN(c3cc([C@H](C(=O)N5C[C@H](O)C[C@H]5C(=O)N[C@@H](C)c5ccc(-c6ccnn6C)cc5)C(C)C)on3)C4)nc3c(F)c(-c4cc(O)cc5ccccc45)c(Cl)cc23)C[C@@H]1CC#N (atropisomer, axis not shown) [Compound 116]" study_target="HiBit-KRAS^G12C (Homo sapiens, UniProt P01116, G12C)" quantity_name=DC50 result="< 0.1 µM"

# context switch: different molecule, same DC50
Bench note, HiBit-KRAS^G12C (Homo sapiens, UniProt P01116, G12C): entry C=CC(=O)N1CCN(c2nc(OCCN3CCC(CN(C)c4cc([C@H](C(=O)N5C[C@H](O)C[C@H]5C(=O)N[C@@H](C)c5ccc(-c6scnc6C)cc5)C(C)C)on4)CC3)nc3c(F)c(-c4cc(O)cc5ccccc45)c(Cl)cc23)C[C@@H]1CC#N [Compound 143] , its DC50 = 0.1 to 1 µM
